Provide the recorded Binding Signal (fold over 6E7 parental antibody) for the entries that follow.
Target: T1, human TREM2 (human) (UniProt Q9NZC2)
T1 sequence (looked up): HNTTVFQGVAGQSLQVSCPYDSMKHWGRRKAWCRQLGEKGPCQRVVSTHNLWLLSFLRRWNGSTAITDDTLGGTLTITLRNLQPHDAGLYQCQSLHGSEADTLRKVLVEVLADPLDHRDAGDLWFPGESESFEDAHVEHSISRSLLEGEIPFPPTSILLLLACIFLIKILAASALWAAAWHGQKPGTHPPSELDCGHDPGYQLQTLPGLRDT
Assay: 2nd screen, 10 nM Ab
One number for each entry, in fold.

// worked examples, Binding Signal (fold over 6E7 parental antibody) included
binder="6E7 variant V3 (antibody, V domains shown) VH: EVQLVQSGAEVKKPGESLKISCKGSGYSFASYWIAWVRQMPGKGLEWMGIIYPGDSDTRYSPSFQDQVTISADKSISTAYLQWSSLKASDTAMYFCARGRTFYYDSSDYFDYWGQGTLVTVSS VL: DIQMTQSPSSVSASVGDRVTITCRASQGISSWLAWYQQKPGKAPKLLIYAASSRQNGVPSRFSGSGSGTDFTLTISSLQPEDFATYFCQQADRFPRTFGQGTKLEIK" reported_value=2.24
binder="6E7 variant V27 (antibody, V domains shown) VH: EVQLVQSGAEVKKPGESLKISCKGSGYSFTSYWIAWVRQMPGKGLEWMGIIYPGDSDTRYAPSFQGQVTISADKSISTAYLQWSSLKASDTAMYFCVRSRTFYYDSSDYFDYWGQGTLVTVSS VL: DIQMTQSPSSVSASVGDRVTITCRASQGISSWLAWYQQKPGKAPKLLIYAASSLQRGVPSRFSGSGSGTDFTLTISSLQPEDFATYFCQQADSFPRTFGQGTKLEIK" reported_value=5.69
binder="6E7 variant V38 (antibody, V domains shown) VH: EVQLVQSGAEVKKPGESLKISCKGSGYSFGSYWIAWVRQMPGKGLEWMGIIYPGDSDVRYSPSFQGQVTISADKSISTAYLQWSSLKASDTAMYFCARQRTFYYDSSDYFDYWGQGTLVTVSS VL: DIQMTQSPSSVSASVGDRVTITCRASQGISSWLAWYQQKPGKAPKLLIYAASSRQNGVPSRFSGSGSGTDFTLTISSLQPEDFATYFCQQADSHPRTFGQGTKLEIK" reported_value=4.36

For each of the items listed, what is its Binding Signal (fold over 6E7 parental antibody)?
1. 6E7 variant V84 (antibody, V domains shown) VH: EVQLVQSGAEVKKPGESLKISCKGSGYGFTSYWIAWVRQMPGKGLEWMGIIYPGDSDTRYSPSFQGQVTISADKSISTAYLQWSSLKASDTAMYFCARQRTFYYDSSDYSDYWGQGTLVTVSS VL: DIQMTQSPSSVSASVGDRVTITCRASQGISSWLAWYQQKPGKAPKLLIYGASSLQNGVPSRFSGSGSGTDFTLTISSLQPEDFATYFCQQADSFPRTFGQGTKLEIK
2. 6E7 variant V60 (antibody, V domains shown) VH: EVQLVQSGAEVKKPGESLKISCKGSGYHFTSYWIAWVRQMPGKGLEWMGIIYPGDSDVRYSPSFQGQVTISADKSISTAYLQWSSLKASDTAMYFCARQRTFYYDSSDYSDYWGQGTLVTVSS VL: DIQMTQSPSSVSASVGDRVTITCRASQGISSWLAWYQQKPGKAPKLLIYAASSLQRGVPSRFSGSGSGTDFTLTISSLQPEDFATYFCGQADSFPRTFGQGTKLEIK
3. 6E7 variant V2 (antibody, V domains shown) VH: EVQLVQSGAEVKKPGESLKISCKGSGSSFTSYWIAWVRQMPGKGLEWMGIIYPGDGDTRYSPSFQGQVTISADKSISTAYLQWSSLKASDTAMYFCARSRTFYYDSSDYFDYWGQGTLVTVSS VL: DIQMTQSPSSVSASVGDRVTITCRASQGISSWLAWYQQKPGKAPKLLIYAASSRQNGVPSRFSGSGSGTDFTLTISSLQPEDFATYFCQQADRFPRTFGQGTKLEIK
4. 6E7 variant V88 (antibody, V domains shown) VH: EVQLVQSGAEVKKPGESLKISCKGSGYSFGSYWIAWVRQMPGKGLEWMGIIYPGDSDTRYSPSFQGQVTISADKSISTAYLQWSSLKASDTAMYFCARQRTFYYDSSDYFDYWGQGTLVTVSS VL: DIQMTQSPSSVSASVGDRVTITCRASQGISSWLAWYQQKPGKAPKLLIYAASRLQRGVPSRFSGSGSGTDFTLTISSLQPEDFATYFCQQADSSPRTFGQGTKLEIK
5. 6E7 variant V41 (antibody, V domains shown) VH: EVQLVQSGAEVKKPGESLKISCKGSGYSFTSYWIAWVRQMPGKGLEWMGTIYPGDSDTRYSPSFQGQVTISADKSISTAYLQWSSLKASDTAMYFCARQRTFYYDSSDYFDYWGQGTLVTVSS VL: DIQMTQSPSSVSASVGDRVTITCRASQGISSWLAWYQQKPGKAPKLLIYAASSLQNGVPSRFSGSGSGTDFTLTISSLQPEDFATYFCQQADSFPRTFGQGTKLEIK
6. 6E7 variant V87 (antibody, V domains shown) VH: EVQLVQSGAEVKKPGESLKISCKGSGYSFRSYWIAWVRQMPGKGLEWMGIIYPGDSDVRYSPDFQGQVTISADKSISTAYLQWSSLKASDTAMYFCARSRTFYYDSSDYFDYWGQGTLVTVSS VL: DIQMTQSPSSVSASVGDRVTITCRASQGISSWLAWYQQKPGKAPKLLIYAASSLQWGVPSRFSGSGSGTDFTLTISSLQPEDFATYFCQQADSFPRTFGQGTKLEIK
7. 6E7 variant V14 (antibody, V domains shown) VH: EVQLVQSGAEVKKPGESLKISCKGSGYSFGSYWIAWVRQMPGKGLEWMGIIYPGDQDTRYSPSFQGQVTISADKSISTAYLQWSSLKASDTAMYFCARGRTFYYDSSDYFDYWGQGTLVTVSS VL: DIQMTQSPSSVSASVGDRVTITCRASQGISSWLAWYQQKPGKAPKLLIYAASRLQNGVPSRFSGSGSGTDFTLTISSLQPEDFATYFCQQADSFPRTFGQGTKLEIK

[1.62, 3.63, 2.9, 5.3, 1.72, 3.93, 4.64]
